These measurements were taken from PubChem BioAssay (NCI).

Hi there, I'd appreciate the recorded growth inhibition for every entry that follows.
assay: NCI Yeast Anticancer Drug Screen. Data for the bub3 strain (AID 167); details: S. cerevisiae bub3 mutant strain, at 50.0 µM, hits give high values
About 79,000 compounds went through this panel and 15% of them were active in at least one assay; those are over-represented in the sample as a whole.
Note: unit % is implicit; provide only the numeric part.

Fill in the blank: the reported growth inhibition of "CC(=O)Oc1ccc(C(C)C)cc1" is ____. -11.2

"O=C(O)c1c[nH]c(=O)[nH]c1=O" ? 0.65

Here is the next molecule: Cc1cc[n+](C(C)CCC(C)[n+]2ccc(C)cc2)cc1 (stereo not given) 14.2

Next entry: "COC(=O)c1cc(=O)c2ccc(Cl)cc2[nH]1" -18.3

Please give the result for "O=C(NNC1=NCCN1Cc1ccccc1)c1cccc(Cl)c1" too. -0.8

Next entry: CC(OC(C(O)C=O)C(O)C(O)CO)C(=O)N[C@@H](C)C(=O)O (stereo not given in full) -9.2

# iterate: "COc1cc(C=C(c2ccc(N(C)C)cc2)c2ccc(N(C)C)cc2)c2ccccc2c1OC" -12.8

Can you check O=P(O)(OCC(Br)CBr)OCC(Br)CBr (stereo not given) next? 1.75

Let us now turn to "CN(NC(=O)c1ccco1)C1=NCCCCN1" -10.2

Another molecule to check: CC1CN(C(=O)Cn2cnc([N+](=O)[O-])n2)CC(C)O1 (stereo not given) 29.8

Again, but for "O=C(CCl)Nc1cc2ccccc2c2ccccc12" 9.6

"O=c1[nH]c2ccccc2c(O)c1/C=N/C(=S)NC1CCCCC1" , same question. 3.45

Input O=C1C2Nc3ccccc3N=C2OC1c1ccc(Cl)c(Cl)c1 (stereo not given) -4.8

What would you report for "O=C(O)Cc1c(-c2ccccc2)nc(=S)[nH]c1-c1[nH]c(=S)nc(-c2ccccc2)c1CC(=O)O" ? 2.15

Similarly, CC1CCCC/C1=N\N(C)C (stereo not given) ? -5.65

Continue with "C=CCNc1ccc(Cl)cc1Cl" -8.75

Also NC1CCC(P(=O)(O)O)CC1 (stereo not given) , if possible. -6.2

What about COC1CC(NC(C)=O)C(OC(C)=O)C(CN=[N+]=[N-])O1 (stereo not given) ? -10.2

Now consider "CCOC(=O)C(C=C(C)C)(CC)C(=O)OCC" . -17.1

Next record, please: NC(N)=NCCCC(O)C(=O)O (stereo not given) 2.25

# repeat for O=CC(NC(=O)OCc1ccccc1)C(O)C(O)C(O)CO (stereo not given) -15.9

How about "COC(=O)c1cccc(=O)o1" ? -1.2

Okay, and "CSC#CC(Sc1c(Cl)c(Cl)c(Cl)c(Cl)c1Cl)=C(Sc1c(Cl)c(Cl)c(Cl)c(Cl)c1Cl)Sc1c(Cl)c(Cl)c(Cl)c(Cl)c1Cl" ? -0.6

Same thing, different molecule: CC(NNC(=S)N1CCN(c2ccccn2)CC1)c1cccc[n+]1[O-] (stereo not given) 6.55

Check CC1(C)C2C/C(=N/O)C(=O)C1C2 (stereo not given) too. -16.9

----------
assay: NCI Yeast Anticancer Drug Screen. Data for the sgs1 mgt1 strain (AID 161);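 also: 0% = growth of cultures given vehicle only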; settings: S. cerevisiae sgs1 mgt1 strain, at 50.0 µM, hits give high values
Compounds without any hit were thinned out: in the full panel of roughly 79,000, 15% have a hit.
Measurement name: growth inhibition (%)
# number only, unit % dropped from output

// returns reported growth inhibition for input "Ic1ccccc1/C=C/c1ccccn1" 28.7

Thanks! And "CC1=Nc2ccc(C)cc2N=C(C)C1" ? 7.2

Follow-up item: "Oc1cccc(CCc2ccccn2)c1" -11.3

Consider next the compound "OC(CNc1ncccn1)(Cc1ccccc1)Cc1ccccc1" in the same way. 2.45

Now the same for "O=C(O)c1ccc(Br)cc1C(=O)O" 1.5

Try "CCOC(=O)C(NC(=O)OC(C)(C)C)C(=O)OCC" next. -33.1

Now the same for "CC(C)S(=O)(=O)c1s[nH]c(=O)c1-c1ccccc1" 12.2

"COC(=O)c1ccccc1-c1ccccc1[N+](=O)[O-]" , same question. 2.5

Repeat for the following compound: "C=C(NC(C)=O)C(=O)O" -11

Also need "CCNC(=O)COc1ccc(Br)cc1Br" , thanks. -3.8

What about this compound? "N#CC(C#N)=C1C=CC=CC=C1" 0.85

Entry "CN(C)c1ccc(C=C(C(=O)c2ccccc2)C(=O)c2ccccc2)cc1" please 0.75

# iterate: "CC(C)(C)/C(=N\[N+](C)(C)C)c1ccccc1" 0.4
